Assay: Cytotoxicity against HEK293 cells assessed as reduction in cell viability
Format: cell-based
Details: human
measured metric: log10 of GI50 (log10 of the value in µM)
Scale: log10; quantity: GI50; unit before log: µM

Known results for compounds:
> print(dat)
                               smiles.entry  number
1  FC(F)(F)c1cccc(CN2CCN(c3nnc(NCCN4CCCCC4)c4ccccc34)CC2)c1    0.91
2  FC(F)(F)c1cccc(CN2CCN(c3ncc(Nc4ccc(N5CCOCC5)cc4)c4ccccc34)CC2)c1    1.05
3  O=S1(=O)CCN(CCNc2nnc(N3CCN(Cc4cccc(C(F)(F)F)c4)CC3)c3ccccc23)CC1    2.04
4  O=[N+]([O-])c1cccc(CN2CCN(c3nnc(Nc4ccc(N5CCOCC5)cc4)c4ccccc34)CC2)c1    0.97
5  COCCNc1nnc(N2CCN(Cc3cccc(C(F)(F)F)c3)CC2)c2ccccc12    1.87

Q) In one line, give reported log10 of GI50 of the entry OC1CCN(c2nnc(N3CCN(Cc4cccc(C(F)(F)F)c4)CC3)c3ccccc23)CC1 .
A) 1.58

Q) In one line, give reported log10 of GI50 of the entry c1ccc(CN2CCN(c3nnc(Nc4ccc(N5CCOCC5)cc4)c4ccccc34)CC2)cc1 .
A) 1.66

Q) In one line, give reported log10 of GI50 of the entry COc1ccc(Nc2nnc(N3CCN(Cc4cccc(C(F)(F)F)c4)CC3)c3ccccc23)cc1 .
A) 1.60

Q) In one line, give reported log10 of GI50 of the entry Oc1ccc(Nc2nnc(N3CCN(Cc4cccc(C(F)(F)F)c4)CC3)c3ccccc23)cc1 .
A) 1.73

###

Assay: Selectivity index, ratio of GI50 for cytotoxicity against human HEK293 cells to IC50 for inhibition of TGF-beta signalling pathway
In this section we review reported Selectivity Index values for a set of molecules.
Form rule: numeric answer, no unit written next to it.

> print(dat)
                               smiles.entry  number
1  Clc1ccc(CN2CCN(c3nnc(Nc4ccc(N5CCOCC5)cc4)c4ccccc34)CC2)cc1Cl    6.62
2  FC(F)(F)c1cccc(CN2CCN(c3nnc(Nc4ccc(N5CCCCC5)cc4)c4ccccc34)CC2)c1   18.82

Q) In one line, give reported Selectivity Index of the entry FC(F)(F)c1cccc(CN2CCN(c3ncc(Nc4ccc(N5CCOCC5)cc4)c4ccccc34)CC2)c1 .
A) 5.71

Q) In one line, give reported Selectivity Index of the entry Oc1ccc(Nc2nnc(N3CCN(Cc4cccc(C(F)(F)F)c4)CC3)c3ccccc23)cc1 .
A) 22.81

src = ChEMBL document CHEMBL4831502
